target: UniProt Q86X55; experiment: radioactive assay (Reaction Biology Corp.), inhibition of PRMT4; assay type: biochemical
Sequence (Q86X55 whole entry, species assumed): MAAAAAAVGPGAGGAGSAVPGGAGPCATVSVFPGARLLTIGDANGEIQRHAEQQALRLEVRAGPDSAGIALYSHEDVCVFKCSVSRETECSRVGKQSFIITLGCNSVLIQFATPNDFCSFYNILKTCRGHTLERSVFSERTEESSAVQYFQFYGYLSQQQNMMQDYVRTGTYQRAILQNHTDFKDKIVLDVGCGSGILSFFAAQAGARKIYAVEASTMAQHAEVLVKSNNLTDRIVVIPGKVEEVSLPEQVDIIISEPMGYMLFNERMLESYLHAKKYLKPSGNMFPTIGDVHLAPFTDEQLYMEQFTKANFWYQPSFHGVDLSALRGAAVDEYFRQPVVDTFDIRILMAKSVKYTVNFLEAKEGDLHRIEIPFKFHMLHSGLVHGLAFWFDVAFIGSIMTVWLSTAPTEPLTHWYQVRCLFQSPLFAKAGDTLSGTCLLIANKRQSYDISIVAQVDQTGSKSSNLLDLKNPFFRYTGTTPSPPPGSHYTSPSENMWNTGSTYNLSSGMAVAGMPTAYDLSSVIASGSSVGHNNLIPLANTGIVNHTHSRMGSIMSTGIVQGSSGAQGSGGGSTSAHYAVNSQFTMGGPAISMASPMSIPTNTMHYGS
experimental.endpoint: inhibition at 10 µM (%)
Entry rule: numbers only, all in %.

Below are worked cases with known answers.
[[record]]
compound = "Nc1ncnc2c1ncn2[C@@H]1O[C@H](CSCCNCc2cccc(-c3ccc(F)c(O)c3)c2)[C@@H](O)[C@H]1O [Compound 10f]"
experimental_endpoint = "inhibition at 10 µM"
measurement_unit = "%"
observed_result = 99

[[record]]
compound = "Nc1ncnc2c1ncn2[C@@H]1O[C@H](CSCCNC(=O)Nc2ccc(Cl)cc2)[C@@H](O)[C@H]1O [Compound 7k]"
experimental_endpoint = "inhibition at 10 µM"
measurement_unit = "%"
observed_result = 67

[[record]]
compound = "N=C(NCCCSC[C@H]1O[C@@H](n2cnc3c(NCCCc4ccccc4)ncnc32)[C@H](O)[C@@H]1O)NCC1CC1 [Compound 19f]"
experimental_endpoint = "inhibition at 10 µM"
measurement_unit = "%"
observed_result = 36


Now for a further compound.
Qu. Give measured inhibition at 10 µM for CCCCNC(=N)NCCCSC[C@H]1O[C@@H](n2cnc3c(NCCCc4ccccc4)ncnc32)[C@H](O)[C@@H]1O [Compound 19a] (UniProt Q86X55).
Ans. 47

====

molecular target: PRMT6 (Homo sapiens, UniProt Q96LA8); experiment: radioactive assay (Reaction Biology Corp.), inhibition of PRMT6; type: biochemical; details: 10 μM
Sequence (Q96LA8 whole entry, species assumed): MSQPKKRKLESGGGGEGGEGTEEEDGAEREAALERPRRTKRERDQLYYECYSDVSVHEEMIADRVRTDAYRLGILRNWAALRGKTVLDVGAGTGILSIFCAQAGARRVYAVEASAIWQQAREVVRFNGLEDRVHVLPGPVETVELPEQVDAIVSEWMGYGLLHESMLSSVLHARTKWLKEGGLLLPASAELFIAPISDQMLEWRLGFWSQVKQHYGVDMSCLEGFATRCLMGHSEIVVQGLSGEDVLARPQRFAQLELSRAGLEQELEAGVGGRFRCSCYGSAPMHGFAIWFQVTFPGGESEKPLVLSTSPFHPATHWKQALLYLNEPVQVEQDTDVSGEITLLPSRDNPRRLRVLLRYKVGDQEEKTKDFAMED
experimental.endpoint: PRMT6 inhibition

[[record]]
compound = "Nc1ncnc2c1ncn2[C@@H]1O[C@H](CSCCNC(=O)NCc2ccc(F)cc2)[C@@H](O)[C@H]1O [Compound 7d]"
observed_result = "inactive to PRMT6"

[[record]]
compound = "Nc1ncnc2c1ncn2[C@@H]1O[C@H](CSCCNC(=O)Nc2ccccc2)[C@@H](O)[C@H]1O [Compound 7f]"
observed_result = "inactive to PRMT6"

[[record]]
compound = "Nc1ncnc2c1ncn2[C@@H]1O[C@H](CSCCNC(=O)Nc2ccc(F)cc2)[C@@H](O)[C@H]1O [Compound 7j]"
observed_result = "inactive to PRMT6"


====

biological target: UniProt:Q9NR22; test: radioactive assay (Reaction Biology Corp.), inhibition of PRMT8; type: biochemical
Sequence (Q9NR22 whole entry, species assumed): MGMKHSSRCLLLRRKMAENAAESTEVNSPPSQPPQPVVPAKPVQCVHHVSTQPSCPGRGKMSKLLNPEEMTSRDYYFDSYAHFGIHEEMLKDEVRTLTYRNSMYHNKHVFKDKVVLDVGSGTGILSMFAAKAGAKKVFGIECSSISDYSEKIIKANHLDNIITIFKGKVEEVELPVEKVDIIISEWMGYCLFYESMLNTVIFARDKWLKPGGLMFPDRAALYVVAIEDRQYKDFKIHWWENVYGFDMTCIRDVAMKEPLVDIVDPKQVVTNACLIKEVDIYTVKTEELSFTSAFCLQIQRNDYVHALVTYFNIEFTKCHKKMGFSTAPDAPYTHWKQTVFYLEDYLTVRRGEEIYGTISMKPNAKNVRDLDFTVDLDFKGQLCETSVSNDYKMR
experimental.endpoint: inhibition at 10 µM (%)
Entry rule: numbers only, all in %.

Below are worked cases with known answers.
[[record]]
molecule = "N=C(NCCCSC[C@H]1O[C@@H](n2cnc3c(N)ncnc32)[C@H](O)[C@@H]1O)NCc1ccccc1 [Compound 5e]"
system = "UniProt:Q9NR22"
experimental_endpoint = "inhibition at 10 µM"
measurement_unit = "%"
observed_result = 97

[[record]]
molecule = "Nc1ncnc2c1ncn2[C@@H]1O[C@H](CSCCCNC(=O)NCCc2ccccc2)[C@@H](O)[C@H]1O [Compound 7r]"
system = "UniProt:Q9NR22"
experimental_endpoint = "inhibition at 10 µM"
measurement_unit = "%"
observed_result = 22

[[record]]
molecule = "N=C(NCCSC[C@H]1O[C@@H](n2cnc3c(N)ncnc32)[C@H](O)[C@@H]1O)Nc1cccc(-c2ccc(Cl)cc2)c1 [Compound 6a]"
system = "UniProt:Q9NR22"
experimental_endpoint = "inhibition at 10 µM"
measurement_unit = "%"
observed_result = 97

[[record]]
molecule = "Nc1ncnc2c1ncn2[C@@H]1O[C@H](CSCCNC(=O)NCc2ccc(-c3ccc(O)cc3)cc2)[C@@H](O)[C@H]1O [Compound 8c]"
system = "UniProt:Q9NR22"
experimental_endpoint = "inhibition at 10 µM"
measurement_unit = "%"
observed_result = 3

[[record]]
molecule = "Nc1ncnc2c1ncn2[C@@H]1O[C@H](CSCCNC(=O)Nc2cccc3ccccc23)[C@@H](O)[C@H]1O [Compound 7l]"
system = "UniProt:Q9NR22"
experimental_endpoint = "inhibition at 10 µM"
measurement_unit = "%"
observed_result = 5

[[record]]
molecule = "Nc1ncnc2c1ncn2[C@@H]1O[C@H](CSCCOc2ccc(-c3ccc(Cl)cc3)cc2)[C@@H](O)[C@H]1O [Compound 14a]"
system = "UniProt:Q9NR22"
experimental_endpoint = "inhibition at 10 µM"
measurement_unit = "%"
observed_result = 38

[[record]]
molecule = "Nc1ncnc2c1ncn2[C@@H]1O[C@H](CSCCNCc2cccc(-c3ccncc3)c2)[C@@H](O)[C@H]1O [Compound 10k]"
system = "UniProt:Q9NR22"
experimental_endpoint = "inhibition at 10 µM"
measurement_unit = "%"
observed_result = 69

[[record]]
molecule = "N=C(NCCCSC[C@H]1O[C@@H](n2cnc3c(NCCCc4ccccc4)ncnc32)[C@H](O)[C@@H]1O)NC1CCC1 [Compound 19c]"
system = "UniProt:Q9NR22"
experimental_endpoint = "inhibition at 10 µM"
measurement_unit = "%"
observed_result = 91

[[record]]
molecule = "Nc1ncnc2c1ncn2[C@@H]1O[C@H](CSCCNCc2cccc(-c3ccc(Cl)cc3)c2)[C@@H](O)[C@H]1O [Compound 10a]"
system = "UniProt:Q9NR22"
experimental_endpoint = "inhibition at 10 µM"
measurement_unit = "%"
observed_result = 71

[[record]]
molecule = "Nc1ncnc2c1ncn2[C@@H]1O[C@H](CSCCNC(=O)Nc2ccc(F)cc2)[C@@H](O)[C@H]1O [Compound 7j]"
system = "UniProt:Q9NR22"
experimental_endpoint = "inhibition at 10 µM"
measurement_unit = "%"
observed_result = 1


Qu. # return recorded inhibition at 10 µM for input Nc1ncnc2c1ncn2[C@@H]1O[C@H](CSCCOc2ccc(-c3ccccc3O)cc2)[C@@H](O)[C@H]1O [Compound 14g]
Ans. 39

Qu. # return recorded inhibition at 10 µM for input Nc1ncnc2c1ncn2[C@@H]1O[C@H](CSCCCNCc2cccc(-c3cncnc3)c2)[C@@H](O)[C@H]1O [Compound 10s]
Ans. 39

Qu. # return recorded inhibition at 10 µM for input Nc1ncnc2c1ncn2[C@@H]1O[C@H](CSCCNC(=O)NCCc2ccccc2)[C@@H](O)[C@H]1O [Compound 7c]
Ans. -1

Qu. # return recorded inhibition at 10 µM for input N=C(NCCCSC[C@H]1O[C@@H](n2cnc3c(N)ncnc32)[C@H](O)[C@@H]1O)Nc1cccc(F)c1 [Compound 7s]
Ans. -12

====

system: PRMT4; experiment: radioactive assay (Reaction Biology Corp.), inhibition of PRMT4; type: biochemical
Reported pIC50 values are given for each entry in this list.
Remember the convention: pIC50 equals -log10 of concentration in molar.

[[record]]
compound = "Nc1ncnc2c1ncn2[C@@H]1O[C@H](CSCCNCc2cccc(-c3cncnc3)c2)[C@@H](O)[C@H]1O [Compound 10g]"
system = "PRMT4"
experimental_endpoint = "pIC50"
observed_result = 5.03

[[record]]
compound = "Nc1ncnc2c1ncn2[C@@H]1O[C@H](CSCCNC(=O)NCc2ccc(F)cc2)[C@@H](O)[C@H]1O"
system = "PRMT4"
experimental_endpoint = "pIC50"
observed_result = 6.57

[[record]]
compound = "Nc1ncnc2c1ncn2[C@@H]1O[C@H](CSCCCNC(=O)NCc2ccccc2)[C@@H](O)[C@H]1O"
system = "PRMT4"
experimental_endpoint = "pIC50"
observed_result = 5.44


Qu. # return recorded pIC50 for input Nc1ncnc2c1ncn2[C@@H]1O[C@H](CSCCNC(=O)NCc2ccccc2Br)[C@@H](O)[C@H]1O
Ans. 7.68

Qu. # return recorded pIC50 for input Nc1ncnc2c1ncn2[C@@H]1O[C@H](CSCCNC(=O)NCc2ccccc2)[C@@H](O)[C@H]1O
Ans. 6.85

====

Reported inhibition at 10 µM values are given for each entry in this list.
target: PRMT3 (Homo sapiens, UniProt O60678); experiment: SAHH-coupled fluorescence assay, inhibition of PRMT3; assay type: biochemical; design: PRMT3 (residues 211-531) was cloned into the pET28a-MHL expression vector; tag of the pET28a-MHL vector (not described); made in house; host or cells: Escherichia coli BL21(DE3)
Sequence (O60678 211-531): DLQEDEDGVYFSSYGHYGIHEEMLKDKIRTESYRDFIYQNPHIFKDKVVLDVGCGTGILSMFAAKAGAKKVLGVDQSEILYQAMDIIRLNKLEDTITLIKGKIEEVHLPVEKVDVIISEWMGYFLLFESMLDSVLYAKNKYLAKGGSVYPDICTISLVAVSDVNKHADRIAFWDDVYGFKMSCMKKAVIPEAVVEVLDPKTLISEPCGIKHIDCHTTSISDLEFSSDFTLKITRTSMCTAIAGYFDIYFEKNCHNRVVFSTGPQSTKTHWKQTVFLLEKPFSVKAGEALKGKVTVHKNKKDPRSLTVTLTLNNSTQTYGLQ
Entry rule: numbers only, all in %.

Below are worked cases with known answers.
[[record]]
compound = "CCCCNC(=N)NCCCSC[C@H]1O[C@@H](n2cnc3c(NCCCc4ccccc4)ncnc32)[C@H](O)[C@@H]1O [Compound 19a]"
observed_result = 14

[[record]]
compound = "Nc1ncnc2c1ncn2[C@@H]1O[C@H](CSCCOc2ccc(-c3ccc(F)c(O)c3)cc2)[C@@H](O)[C@H]1O [Compound 14d]"
observed_result = 3

[[record]]
compound = "COc1cc2nc(-c3ccc(C(F)(F)F)cc3)nc(NCCSC[C@H]3O[C@@H](n4cnc5c(N)ncnc54)[C@H](O)[C@@H]3O)c2cc1OC [Compound 12e]"
observed_result = 5

[[record]]
compound = "N=C(NCCCSC[C@H]1O[C@@H](n2cnc3c(N)ncnc32)[C@H](O)[C@@H]1O)Nc1cccc(-c2ccc(F)c(O)c2)c1"
observed_result = 58


Qu. # return recorded inhibition at 10 µM for input Nc1ncnc2c1ncn2[C@@H]1O[C@H](CSCCNC(=O)NCc2ccc(-c3ccc(O)cc3)cc2)[C@@H](O)[C@H]1O
Ans. 10

Qu. # return recorded inhibition at 10 µM for input N=C(NCCCSC[C@H]1O[C@@H](n2cnc3c(N)ncnc32)[C@H](O)[C@@H]1O)Nc1cccc(-c2n[nH]cc2C(F)(F)F)c1
Ans. 60
